Catalogue of solubility at 24 h readings, one per entry.
ASSAY_DETAILS: physchem
MEASUREMENT_CONDITIONS: pH 6.8, aqueous buffer, kinetic from dmso stock, Solubility (pH 6.8)
Kindly provide the numeric value in µg/mL only, without the unit symbol.

COC[C@H]1N(c2cccc(-c3cccc(C)c3OCc3cc(C)c4c(c3)CCN(C3CCOCC3)C4)n2)C[C@@H]2C[C@@]21C(=O)O [Compound 48]: 83
CCO[C@H]1CN(c2nc(-c3cccc(C)c3OCc3cc4c(c(OC)c3)CN(C3CCOCC3)CC4)cs2)CC[C@H]1C(=O)O [Compound 232]: 131
Cc1ccc(OCc2cc(C)c3c(c2)CCN(C2CCOCC2)C3)c(-c2cccc(N3C[C@@H]4C[C@]4(C(=O)O)C3)n2)c1 [Compound 37]: 50
CCO[C@@H]1CN(c2nc(-c3cccc(C)c3OCc3cc(F)c4c(c3)CCN(C3CCOCC3)C4)cs2)CC[C@@H]1C(=O)O [Compound 238]: 109
CCO[C@H]1CN(c2nccc(-c3cccc(C)c3OCc3ccc4c(c3C)CCN(C3CCOCC3)CC4)n2)CC[C@H]1C(=O)O [Compound 275]: 84.5

Please examine the following record next.
Ask: Name the recorded solubility at 24 h for Cc1ccc(OCc2ccc3c(c2)CCCN(C2CCOCC2)C3)c(-c2csc(N3CC[C@@]4(C(=O)O)C[C@H]4C3)n2)c1 [Compound 199] .
Result: 23.8
